Tested on: MST1
Construct: gene STK4
Conditions: Compound Concentration (nM):1000;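 further: KINOMEscan scanMAX binding as percent activity remaining versus control; lower means stronger binding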
measurement_kind: Percent Control

>>> reported("CN1CCN(C(=O)c2ccc(NC(=O)Nc3ccc(N(C)c4ccnc(Nc5ccc(CS(C)(=O)=O)cc5)n4)cc3)cc2)CC1.Cl [GW830263A]")
"96%"
>>> reported("Cl.O=C(Nc1ccc(Oc2ccc3[nH]c(NC(=O)c4ccccc4)nc3c2)cc1)Nc1cc(C(F)(F)F)ccc1F [GW709042A]")
"73%"
>>> reported("NS(=O)(=O)c1ccc(Nc2ncc(-c3ccccc3)o2)cc1 [GW572399X]")
"100%"
>>> reported("NS(=O)(=O)c1ccc(N/N=C2\\C(=O)Nc3ccc(C(=O)NCc4ccncc4)cc32)cc1 [GW300657X]")
"100%"
>>> reported("Cl.O=C(Nc1ccc(Oc2ccc3[nH]c(NC(=O)c4ccco4)nc3c2)cc1)Nc1cc(C(F)(F)F)ccc1F [GW683134A]")
"100%"
>>> reported("COc1ccc(COc2ccc(Cc3cnc(N)nc3N)cc2OC)cc1 [GW632580X]")
"85%"
>>> reported("O=C(Nc1n[nH]c2nc(-c3ccc(O)cc3)c(Br)cc12)C1CC1")
"100%"
>>> reported("COc1cc(/C=N/Nc2ncnc3[nH]ncc23)ccc1O [GW578748X]")
"100%"
>>> reported("COc1ccc2c(-c3ccnc(Nc4cccc(OC(F)(F)F)c4)n3)cnn2n1 [GW810372X]")
"100%"
>>> reported("Cl.c1ccc(Cc2nc3ccc(Nc4ncnc5ccccc45)cc3[nH]2)cc1 [GR269666A]")
"100%"
>>> reported("COc1cccc(-n2ncc3c(N/N=C/c4ccncc4)ncnc32)c1 [GW784752X]")
"100%"
>>> reported("C/C(Nc1ccc(S(N)(=O)=O)cc1)=C1/C(=O)Nc2ccccc21 [GW335962X]")
"82%"
>>> reported("CCS(=O)(=O)c1ccc(OC)c(Nc2ncc(-c3cccc(F)c3)o2)c1 [GW621970X]")
"100%"
>>> reported("CC1=C(C(=O)Nc2ccc3[nH]ncc3c2)C(c2ccc3ccccc3c2)CC(=O)N1 (centres unmarked) [GSK270822A]")
"93%"
>>> reported("CN(C)CCNC(=O)Nc1ccc(N(C)c2ccnc(Nc3ccc(CS(C)(=O)=O)cc3)n2)cc1.Cl [GW830900A]")
"100%"
>>> reported("COc1cc(N2CCN(C(C)C)CC2)ccc1Nc1nc(Nc2ccc(F)cc2C(=O)NC[C@@H](O)CO)c2cc[nH]c2n1 [GSK1392956A]")
"100%"
>>> reported("COc1ccccc1-c1cc(/C=C2\\C(=O)Nc3ncc(Br)cc32)cc(Br)c1O [GW442130X]")
"100%"
>>> reported("Cl.O=S1CCN(Cc2ccc(-c3ccc4ncnc(Nc5ccc(OCc6ccccc6)c(F)c5)c4c3)o2)CC1 [GW576924A]")
"100%"
>>> reported("CCS(=O)(=O)c1ccc(OC)c(Nc2ncc(-c3cccc(OC)c3)o2)c1 [GW580509X]")
"100%"
>>> reported("COc1ccc2[nH]c3c4[nH]c5ccc(OC)cc5c4c4c(c3c2c1)C(=O)NC4=O [GW296115X]")
"100%"
>>> reported("NS(=O)(=O)c1ccc(N/N=C2\\C(=O)Nc3ccc(-c4cnco4)cc32)cc1")
"100%"
>>> reported("COC(=O)Nc1nc2ccc(Oc3ccc(NC(=O)Nc4cc(C(F)(F)F)ccc4F)cc3)cc2s1.Cl [GW693917A]")
"100%"
>>> reported("Nc1ncnc2occ(-c3ccc(NC(=O)Nc4cc(C(F)(F)F)ccc4F)cc3)c12 [GW770249X]")
"100%"
>>> reported("NS(=O)(=O)c1ccc(N/N=C2\\C(=O)Nc3ccc(Cl)cc32)cc1 [GW280670X]")
"100%"
>>> reported("COc1cc(C)c(N(C)C(=O)CN(C)C)cc1Nc1nc(Nc2cccc(F)c2C(N)=O)c2cc[nH]c2n1")
"100%"
>>> reported("COc1cccc(-c2c[nH]c3c(N/N=C/c4ccncc4)ncnc23)c1 [GW814408X]")
"100%"

---

System: IKK-epsilon
Construct: gene IKBKE
Conditions: Compound Concentration (nM):1000
# Percent Control per record follows
measurement_kind: Percent Control (%)

>>> reported("COc1cc(C)c(N(C)C(=O)CN(C)C)cc1Nc1nc(Nc2cccc(F)c2C(N)=O)c2cc[nH]c2n1 [GSK2219385]")
61
>>> reported("COc1cc2ncnc(Nc3ccc4c(cnn4Cc4ccccc4)c3)c2cc1OC.Cl [GW282449A]")
100
>>> reported("O=C1Nc2ccc(C(=O)c3ccco3)cc2C1=Cc1cc(Cl)c(O)c(Cl)c1 [GW406108X]")
30
>>> reported("Cl.c1ccc(Cc2nc3ccc(Nc4ncnc5ccccc45)cc3[nH]2)cc1 [GR269666A]")
100
>>> reported("C/C(Nc1ccc(S(N)(=O)=O)cc1)=C1/C(=O)Nc2ccccc21 [GW335962X]")
63
>>> reported("CCS(=O)(=O)c1ccc(OC)c(Nc2ncc(-c3cccc(F)c3)o2)c1 [GW621970X]")
98
>>> reported("COc1cc(N2CCN(C(C)C)CC2)ccc1Nc1nc(Nc2ccc(F)cc2C(=O)NC[C@@H](O)CO)c2cc[nH]c2n1 [GSK1392956A]")
78
>>> reported("CC(C)COC(=O)c1ccc2c(c1)/C(=C/Nc1ccc(S(N)(=O)=O)cc1)C(=O)N2 [GW416981X]")
16
>>> reported("COc1cccc(-c2c[nH]c3c(N/N=C/c4ccncc4)ncnc23)c1 [GW814408X]")
100
>>> reported("CN(C)CCNC(=O)Nc1ccc(N(C)c2ccnc(Nc3ccc(CS(C)(=O)=O)cc3)n2)cc1.Cl [GW830900A]")
100
>>> reported("Cc1cc(O)cc(C)c1/C=C/c1cncc(C(N)=O)c1 [GW435821X]")
90
>>> reported("CC1=C(C(=O)Nc2ccc3[nH]ncc3c2)C(c2ccc(Cl)c(Cl)c2)CC(=O)N1 (stereo not drawn) [GSK299115A]")
100

---

Tested on: LIMK1
Details: Compound Concentration (nM):1000
measurement_kind: Percent Control (%)

>>> reported("COc1ccc2[nH]c3c4[nH]c5ccc(OC)cc5c4c4c(c3c2c1)C(=O)NC4=O [GW296115X]")
91
>>> reported("NS(=O)(=O)c1ccc(Nc2ncc(-c3ccccc3)o2)cc1 [GW572399X]")
100
>>> reported("CCn1c(-c2nonc2N)nc2c(C#CC(C)(C)O)nc(OCCNC)cc21.Cl [GSK949675]")
100
>>> reported("CCS(=O)(=O)c1ccc(OC)c(Nc2ncc(-c3cccc(OC)c3)o2)c1 [GW580509X]")
100
>>> reported("COC(=O)Nc1nc2ccc(Oc3ccc(NC(=O)Nc4cc(C(F)(F)F)ccc4F)cc3)cc2s1.Cl [GW693917A]")
43
>>> reported("CN1CCN(C(=O)c2ccc(NC(=O)Nc3ccc(N(C)c4ccnc(Nc5ccc(CS(C)(=O)=O)cc5)n4)cc3)cc2)CC1.Cl [GW830263A]")
61
>>> reported("NS(=O)(=O)c1ccc(N/N=C2\\C(=O)Nc3ccc(C(=O)NCCc4c[nH]cn4)cc32)cc1 [GW300660X]")
100
>>> reported("O=C(Nc1n[nH]c2nc(-c3ccc(O)cc3)c(Br)cc12)C1CC1 [SB-725317]")
100
>>> reported("NS(=O)(=O)c1ccc(N/N=C2\\C(=O)Nc3ccc(-c4cnco4)cc32)cc1 [GW276655]")
60
>>> reported("CC(C)COC(=O)c1ccc2c(c1)/C(=C/Nc1ccc(S(N)(=O)=O)cc1)C(=O)N2 [GW416981X]")
100

---

Test system: EGFR(L858R)
Details: Compound Concentration (nM):1000
# Percent Control per record follows
measurement_kind: Percent Control (%)

>>> reported("NS(=O)(=O)c1ccc(N/N=C2\\C(=O)Nc3ccc(Cl)cc32)cc1 [GW280670X]")
100
>>> reported("Cl.O=S1CCN(Cc2ccc(-c3ccc4ncnc(Nc5ccc(OCc6ccccc6)c(F)c5)c4c3)o2)CC1 [GW576924A]")
0.3
>>> reported("COc1cc(/C=N/Nc2ncnc3[nH]ncc23)ccc1O [GW578748X]")
90
>>> reported("COc1ccc2[nH]c3c4[nH]c5ccc(OC)cc5c4c4c(c3c2c1)C(=O)NC4=O [GW296115X]")
50
>>> reported("Cl.O=C(Nc1ccc(Oc2ccc3[nH]c(NC(=O)c4ccco4)nc3c2)cc1)Nc1cc(C(F)(F)F)ccc1F [GW683134A]")
91
>>> reported("O=C(Nc1n[nH]c2nc(-c3ccc(O)cc3)c(Br)cc12)C1CC1")
96
>>> reported("Nc1ncnc2occ(-c3ccc(NC(=O)Nc4cc(C(F)(F)F)ccc4F)cc3)c12 [GW770249X]")
100
>>> reported("CC1=C(C(=O)Nc2ccc3[nH]ncc3c2)C(c2ccc(Cl)c(Cl)c2)CC(=O)N1 (centres unmarked) [GSK299115A]")
100
>>> reported("COC(=O)Nc1nc2ccc(Oc3ccc(NC(=O)Nc4cc(C(F)(F)F)ccc4F)cc3)cc2s1.Cl [GW693917A]")
78
>>> reported("Cc1cc(O)cc(C)c1/C=C/c1cncc(C(N)=O)c1 [GW435821X]")
80
>>> reported("COc1cccc(-n2ncc3c(N/N=C/c4ccncc4)ncnc32)c1 [GW784752X]")
75
>>> reported("COc1cc(N2CCN(C(C)C)CC2)ccc1Nc1nc(Nc2ccc(F)cc2C(=O)NC[C@@H](O)CO)c2cc[nH]c2n1 [GSK1392956A]")
73
>>> reported("CCc1ccc(Oc2nccc(-c3c(-c4ccc(F)cc4)ncn3C3CCNCC3)n2)cc1")
49
>>> reported("C/C(Nc1ccc(S(N)(=O)=O)cc1)=C1/C(=O)Nc2ccccc21 [GW335962X]")
100
>>> reported("NS(=O)(=O)c1ccc(N/N=C2\\C(=O)Nc3ccc(-c4cnco4)cc32)cc1")
72
>>> reported("CN1CCN(C(=O)c2ccc(NC(=O)Nc3ccc(N(C)c4ccnc(Nc5ccc(CS(C)(=O)=O)cc5)n4)cc3)cc2)CC1.Cl [GW830263A]")
92
>>> reported("COc1cccc(-c2c[nH]c3c(N/N=C/c4ccncc4)ncnc23)c1 [GW814408X]")
23
